Values were extracted from patent US11260115B1.

molecular target: HLA-A*02:01 (Homo sapiens, UniProt P04439, D140Y/D185E/D98H/E176V/E277Q/G131W/G231S/I119V/I121R/I166T/I218V/L300P/L318F/N151K/N90K/P208A/P217A/Q86G/Q94H/R138H/R169H/T345S); assay: MHC binding assay (UV-ligand exchange, β2m ELISA, peptide exchange yield); conditions: binding to HLA-A*02:01
OBSERVED_PROPERTY: Peptide Exchange (MHC class I binding score, peptide exchange yield)

{"SUBSTANCE": "134 (MLLEHGITLV; listed as Homo sapiens) [compound 134]", "MEAS_VALUE": "“++++” (>75% = ++++)"}
{"SUBSTANCE": "285 (GVATAGCVNEV; listed as Homo sapiens) [compound 285]", "MEAS_VALUE": "“++++” (>75% = ++++)"}
{"SUBSTANCE": "347 (YLGPVSPSL; listed as Homo sapiens) [compound 347]", "MEAS_VALUE": "“+++” (>50 = +++)"}
{"SUBSTANCE": "379 (YLAELVTPIL; listed as Homo sapiens) [compound 379]", "MEAS_VALUE": "“+++” (>50 = +++)"}
{"SUBSTANCE": "352 (ALVFELHYV; listed as Homo sapiens) [compound 352]", "MEAS_VALUE": "“+++” (>50 = +++)"}

---

Biological target: HLA-A*02:01 (Homo sapiens, UniProt P04439, D140Y/D185E/D98H/E176V/E277Q/G131W/G231S/I119V/I121R/I166T/I218V/L300P/L318F/N151K/N90K/P208A/P217A/Q86G/Q94H/R138H/R169H/T345S)
Experiment: MHC binding assay (UV-ligand exchange, β2m ELISA, peptide exchange yield)
Conditions: binding to HLA-A*02:01
From the text: Candidate peptides for T cell based therapies according to the present invention were further tested for their MHC binding capacity (affinity). The individual peptide-MHC complexes were produced by UV-ligand exchange, where a UV-sensitive peptide is cleaved upon UV-irradiation, and exchanged with the peptide of interest as analyzed. Only peptide candidates that can effectively bind and stabilize the peptide-receptive MHC molecules prevent dissociation of the MHC complexes. […]
OBSERVED_PROPERTY: Peptide Exchange (MHC class I binding score, peptide exchange yield)

{"SUBSTANCE": "187 (VMDTHLVNI; listed as Homo sapiens) [compound 187]", "MEAS_VALUE": "“++++” (>75% = ++++)"}
{"SUBSTANCE": "286 (FLLEDLSQKL; listed as Homo sapiens) [compound 286]", "MEAS_VALUE": "“+++” (>50 = +++)"}
{"SUBSTANCE": "39 (FLDALLTDV; listed as Homo sapiens) [compound 39]", "MEAS_VALUE": "“+++” (>50 = +++)"}
{"SUBSTANCE": "361 (ILQEFESKL; listed as Homo sapiens) [compound 361]", "MEAS_VALUE": "“+++” (>50 = +++)"}
{"SUBSTANCE": "81 (WLVGQEFEL; listed as Homo sapiens) [compound 81]", "MEAS_VALUE": "“+++” (>50 = +++)"}
{"SUBSTANCE": "259 (RLLDEQFAVL; listed as Homo sapiens) [compound 259]", "MEAS_VALUE": "“+++” (>50 = +++)"}
{"SUBSTANCE": "65 (GLDDMKANL; listed as Homo sapiens) [compound 65]", "MEAS_VALUE": "“++” (>20% = ++)"}
{"SUBSTANCE": "214 (RLQELTEKL; listed as Homo sapiens) [compound 214]", "MEAS_VALUE": "“+++” (>50 = +++)"}
{"SUBSTANCE": "116 (LLIGATMQV; listed as Homo sapiens) [compound 116]", "MEAS_VALUE": "“+++” (>50 = +++)"}
{"SUBSTANCE": "202 (YVDDVFLRV; listed as Homo sapiens) [compound 202]", "MEAS_VALUE": "“++++” (>75% = ++++)"}
{"SUBSTANCE": "205 (GLSQANFTL; listed as Homo sapiens) [compound 205]", "MEAS_VALUE": "“+++” (>50 = +++)"}
{"SUBSTANCE": "266 (TLLDQLDTQL; listed as Homo sapiens) [compound 266]", "MEAS_VALUE": "“++” (>20% = ++)"}
{"SUBSTANCE": "87 (HQIEAVDGEEL; listed as Homo sapiens) [compound 87]", "MEAS_VALUE": "“++” (>20% = ++)"}
{"SUBSTANCE": "47 (FLSDQPEPYL; listed as Homo sapiens) [compound 47]", "MEAS_VALUE": "“++” (>20% = ++)"}
{"SUBSTANCE": "282 (LLRDGIELV; listed as Homo sapiens) [compound 282]", "MEAS_VALUE": "“+++” (>50 = +++)"}
{"SUBSTANCE": "350 (ALEDRVWEL; listed as Homo sapiens) [compound 350]", "MEAS_VALUE": "“+++” (>50 = +++)"}
{"SUBSTANCE": "251 (LLYDNVPGA; listed as Homo sapiens) [compound 251]", "MEAS_VALUE": "“+++” (>50 = +++)"}
{"SUBSTANCE": "102 (IQDRAVPSL; listed as Homo sapiens) [compound 102]", "MEAS_VALUE": "“++” (>20% = ++)"}
{"SUBSTANCE": "35 (FILPSSLYL; listed as Homo sapiens) [compound 35]", "MEAS_VALUE": "“+++” (>50 = +++)"}
{"SUBSTANCE": "281 (NLLDDRGMTAL; listed as Homo sapiens) [compound 281]", "MEAS_VALUE": "“+++” (>50 = +++)"}
{"SUBSTANCE": "346 (VLVQVSPSL; listed as Homo sapiens) [compound 346]", "MEAS_VALUE": "“+++” (>50 = +++)"}
{"SUBSTANCE": "155 (SLMLEVPAL; listed as Homo sapiens) [compound 155]", "MEAS_VALUE": "“+++” (>50 = +++)"}
{"SUBSTANCE": "168 (YLLDQSFVM; listed as Homo sapiens) [compound 168]", "MEAS_VALUE": "“++++” (>75% = ++++)"}
{"SUBSTANCE": "342 (SLITPLQAV; listed as Homo sapiens) [compound 342]", "MEAS_VALUE": "“+++” (>50 = +++)"}
{"SUBSTANCE": "71 (GLKHDIARV; listed as Homo sapiens) [compound 71]", "MEAS_VALUE": "“+++” (>50 = +++)"}
{"SUBSTANCE": "126 (LLPEGGITAI; listed as Homo sapiens) [compound 126]", "MEAS_VALUE": "“+++” (>50 = +++)"}
{"SUBSTANCE": "58 (YIQQGIFSV; listed as Homo sapiens) [compound 58]", "MEAS_VALUE": "“+++” (>50 = +++)"}
{"SUBSTANCE": "252 (NLLDPGSSYLL; listed as Homo sapiens) [compound 252]", "MEAS_VALUE": "“+++” (>50 = +++)"}
{"SUBSTANCE": "283 (ILQPMDIHV; listed as Homo sapiens) [compound 283]", "MEAS_VALUE": "“+++” (>50 = +++)"}
{"SUBSTANCE": "42 (FLEEGGVVTV; listed as Homo sapiens) [compound 42]", "MEAS_VALUE": "“+++” (>50 = +++)"}
{"SUBSTANCE": "365 (LISPLLLPV; listed as Homo sapiens) [compound 365]", "MEAS_VALUE": "“+++” (>50 = +++)"}
{"SUBSTANCE": "149 (SLDNGGYYI; listed as Homo sapiens) [compound 149]", "MEAS_VALUE": "“+++” (>50 = +++)"}
{"SUBSTANCE": "263 (SQWEDIHVV; listed as Homo sapiens) [compound 263]", "MEAS_VALUE": "“+++” (>50 = +++)"}
{"SUBSTANCE": "31 (ELMHGVAGV; listed as Homo sapiens) [compound 31]", "MEAS_VALUE": "“+++” (>50 = +++)"}
{"SUBSTANCE": "84 (GVMDVNTAL; listed as Homo sapiens) [compound 84]", "MEAS_VALUE": "“++” (>20% = ++)"}
{"SUBSTANCE": "355 (FIWPMLIHI; listed as Homo sapiens) [compound 355]", "MEAS_VALUE": "“+++” (>50 = +++)"}
{"SUBSTANCE": "101 (ILVVIEPLL; listed as Homo sapiens) [compound 101]", "MEAS_VALUE": "“++++” (>75% = ++++)"}
{"SUBSTANCE": "327 (VLIKWFPEV; listed as Homo sapiens) [compound 327]", "MEAS_VALUE": "“++++” (>75% = ++++)"}
{"SUBSTANCE": "351 (ALSEKLARL; listed as Homo sapiens) [compound 351]", "MEAS_VALUE": "“+++” (>50 = +++)"}
